biological target: hA3AR (Homo sapiens, UniProt P0DMS8); construct: expressed in transfected cells; host or cells: HEK293; experiment: TGFα shedding assay at hA3AR; format: cell-based; conditions: HEK293, efficacy as compared to adenosine, HEK293 cells, read-out: Emax
Sequence (P0DMS8 whole entry): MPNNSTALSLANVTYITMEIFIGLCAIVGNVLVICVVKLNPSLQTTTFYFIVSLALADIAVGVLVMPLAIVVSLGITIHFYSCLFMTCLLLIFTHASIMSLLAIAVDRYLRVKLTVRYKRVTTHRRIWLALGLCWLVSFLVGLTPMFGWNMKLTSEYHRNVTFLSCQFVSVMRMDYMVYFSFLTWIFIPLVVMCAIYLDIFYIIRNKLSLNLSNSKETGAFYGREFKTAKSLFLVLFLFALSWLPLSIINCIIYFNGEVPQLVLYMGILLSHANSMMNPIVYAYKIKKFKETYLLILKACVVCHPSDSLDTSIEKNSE
property: Emax (%)

Solved entries (count: 2):
// Emax value for Cc1cc(C)nc(N2CCN(CC(=O)c3c[nH]c4c(Cl)cccc34)CC2)n1 : 77

// Emax value for Nc1ncnc2c1ncn2[C@@H]1O[C@H](CO)[C@@H](O)[C@H]1O [Adenosine, reference compound] : 100

1: Cc1cc(C)nc(N2CCN(CC(=O)c3c[nH]c4c([N+](=O)[O-])cccc34)CC2)n1
2: COc1cccc2c(C(=O)CN3CCN(c4nc(C)cc(C)n4)CC3)c[nH]c12
Query :: Return label of the item with the larger Emax. Candidates: 1 , 2 . Use the label to indicate which entry you chose.
Result :: 1

###

Tested on: Caco-2 cell line
Assay: MTT cytotoxicity assay, Caco-2
Format: cell-based
Conditions: Homo sapiens; Caco-2, MTT, 72 h
Protocol: Human colorectal carcinoma cell lines, HCT-116 and Caco-2, were used as models for colorectal cancer cells overexpressing hA3AR. Human normal colon cell line CCD-18Co was used as a model for normal colon cells that express normal levels of hA3AR. […] The cytotoxicity of compound 4 was determined by 3-(4,5-dimethylthiazol-2-yl)-2,5-diphenyltetrazolium bromide (MTT) assay. […] Optical densities were measured at 570 nm with a microplate reader. […]
property: IC50 (µM)
Dear colleague, please return just the value in µM, with no unit written.

// IC50 value for CNC(=O)[C@H]1O[C@@H](n2cnc3c(NCc4cccc(I)c4)nc(Cl)nc32)[C@H](O)[C@@H]1O [Compound 2-Cl-IB-MECA, 2-Cl-IB-MECA, reference compound] : 31

Next molecule, please.
// IC50 value for COc1cccc2c(C(=O)CN3CCN(c4nc(C)cc(C)n4)CC3)c[nH]c12 : 77
